# SYSTEM_TESTED: 5HT3a (Homo sapiens)
# Construct: host or cells: HEK293 or CHO
# Sequence (P46098 whole entry, looked up): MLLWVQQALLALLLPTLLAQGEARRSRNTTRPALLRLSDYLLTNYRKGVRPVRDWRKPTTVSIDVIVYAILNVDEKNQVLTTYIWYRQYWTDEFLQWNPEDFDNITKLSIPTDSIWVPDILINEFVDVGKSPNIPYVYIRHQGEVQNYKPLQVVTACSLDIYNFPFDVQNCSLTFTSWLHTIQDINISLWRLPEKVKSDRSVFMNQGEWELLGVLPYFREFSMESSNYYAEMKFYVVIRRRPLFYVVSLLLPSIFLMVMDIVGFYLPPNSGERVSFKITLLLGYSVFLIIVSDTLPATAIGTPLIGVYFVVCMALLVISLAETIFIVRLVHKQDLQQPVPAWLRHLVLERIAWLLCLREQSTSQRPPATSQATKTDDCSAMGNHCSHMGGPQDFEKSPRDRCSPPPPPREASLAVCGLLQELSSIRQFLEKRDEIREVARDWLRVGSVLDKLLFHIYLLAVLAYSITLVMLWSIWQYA
# TEST_NAME: Ion channel panel (IonWorks Barracuda): 5HT3a
# Type: cell-based
REPORTED_ENDPOINT: Activity of 5HT3a with peptide, expressed as a percentage of the reference compound (%)

In [3]: df
Out[3]:
                                  substance         system_tested  value
0  26 (GSVVIGQRCYRSPDCYSACKKLVGKATGKCTNGRCDC) [compound 26]  5HT3a (Homo sapiens)     82
1  34 (GGYSRCQLQGFNCVVRSYGLPTIPCCRGLTCRSYFPGSTYGRCQRY) [compound 34]  5HT3a (Homo sapiens)    114
2  30 (GSQVSTNKKCSNTSQCYKTCEKVVGVAAGKCMNGKCICYP) [compound 30]  5HT3a (Homo sapiens)     71
3  32 (GSQDKCKKVYENYPVSKCQLANQCNYDCKLDKHARSGECFYDEKRNLQCICDYCEY) [compound 32]  5HT3a (Homo sapiens)     95
4  17 (GSRPTDIKCSASYQCFPVCKSRFGKTNGRCVNGLCDCF) [compound 17]  5HT3a (Homo sapiens)     81
5  23 (GSCIGEGVPCDENDPRCCFGLVCLKPTLHGIWYKSYYCYKK) [compound 23]  5HT3a (Homo sapiens)     74
6  5 (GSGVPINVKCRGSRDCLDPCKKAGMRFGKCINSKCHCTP) [compound 5]  5HT3a (Homo sapiens)     94
7  25 (GSACLAEYQKCEGSTVPCCPGLSCSAGRFRKTKLCTK) [compound 25]  5HT3a (Homo sapiens)     82
8  36 (GSAQEPVKGPVSTKPGSCPIILIRCAMLNPPNRCLKDTDCPGIKKCCEGSCGMACFVPQ) [compound 36]  5HT3a (Homo sapiens)     81
